# Tested on: HT-29
# PROTOCOL: Cytotoxicity against human HT-29 cells assessed as inhibition in cell growth incubated for 72 hrs by MTT assay
# Format: functional, cell-based
# CONDITION SUMMARY: HT-29, 72 h
So I've got a bunch of compounds here, and I need their pIC50 values.
pIC50 here: minus log base 10 of the concentration, concentration in moles per litre.

INPUT: Could you tell me which pIC50 is on file for Cc1ccc(NC(=O)COc2ccc(N3C(=O)CSC3c3ccc(C)cc3)cc2)cc1 (centres undefined) ?
OUTPUT: 6.15

INPUT: I'd like to know its pIC50. The compound in question is O=C(COc1ccc(N2C(=O)CSC2c2ccccc2)cc1)Nc1ccc(F)cc1 (centres undefined)
OUTPUT: 5.29

INPUT: Consider the compound shown here: O=C(COc1ccc(N2C(=O)CSC2c2ccccc2)cc1)Nc1ccc(Cl)cc1 (centres undefined) What is its recorded pIC50?
OUTPUT: 5.45

INPUT: pIC50 lookup needed for COc1cccc2c1C(=O)c1c(O)c3c(c(O)c1C2=O)C[C@@](O)(C(=O)CO)C[C@@H]3O[C@H]1C[C@H](N)[C@H](O)[C@H](C)O1 [DOXORUBICIN] , thanks.
OUTPUT: 5.82

INPUT: Please look up its pIC50: Cc1ccc(C2SCC(=O)N2c2ccc(OCC(=O)Nc3ccc(Cl)cc3)cc2)cc1 (centres undefined)
OUTPUT: 7.70

INPUT: // query pIC50 value for entry COc1ccc(NC(=O)COc2ccc(N3C(=O)CSC3c3ccc(Cl)cc3)cc2)cc1 (centres undefined)
OUTPUT: 6.11

INPUT: Could you share which pIC50 value was measured for Cc1ccc(NC(=O)COc2ccc(N3C(=O)CSC3c3ccccc3)cc2)cc1 (centres undefined) ?
OUTPUT: 5.68

INPUT: pIC50 for O=C(COc1ccc(N2C(=O)CSC2c2ccccc2)cc1)Nc1ccccc1 (centres undefined) ?
OUTPUT: 5.32

INPUT: I would be grateful if you could share the reported pIC50 for COc1ccc(NC(=O)COc2ccc(N3C(=O)CSC3c3ccccc3)cc2)cc1 (centres undefined) .
OUTPUT: 6.62
